TGT: hXPG (Homo sapiens (Human), UniProt P28715)
Sequence (P28715 whole entry): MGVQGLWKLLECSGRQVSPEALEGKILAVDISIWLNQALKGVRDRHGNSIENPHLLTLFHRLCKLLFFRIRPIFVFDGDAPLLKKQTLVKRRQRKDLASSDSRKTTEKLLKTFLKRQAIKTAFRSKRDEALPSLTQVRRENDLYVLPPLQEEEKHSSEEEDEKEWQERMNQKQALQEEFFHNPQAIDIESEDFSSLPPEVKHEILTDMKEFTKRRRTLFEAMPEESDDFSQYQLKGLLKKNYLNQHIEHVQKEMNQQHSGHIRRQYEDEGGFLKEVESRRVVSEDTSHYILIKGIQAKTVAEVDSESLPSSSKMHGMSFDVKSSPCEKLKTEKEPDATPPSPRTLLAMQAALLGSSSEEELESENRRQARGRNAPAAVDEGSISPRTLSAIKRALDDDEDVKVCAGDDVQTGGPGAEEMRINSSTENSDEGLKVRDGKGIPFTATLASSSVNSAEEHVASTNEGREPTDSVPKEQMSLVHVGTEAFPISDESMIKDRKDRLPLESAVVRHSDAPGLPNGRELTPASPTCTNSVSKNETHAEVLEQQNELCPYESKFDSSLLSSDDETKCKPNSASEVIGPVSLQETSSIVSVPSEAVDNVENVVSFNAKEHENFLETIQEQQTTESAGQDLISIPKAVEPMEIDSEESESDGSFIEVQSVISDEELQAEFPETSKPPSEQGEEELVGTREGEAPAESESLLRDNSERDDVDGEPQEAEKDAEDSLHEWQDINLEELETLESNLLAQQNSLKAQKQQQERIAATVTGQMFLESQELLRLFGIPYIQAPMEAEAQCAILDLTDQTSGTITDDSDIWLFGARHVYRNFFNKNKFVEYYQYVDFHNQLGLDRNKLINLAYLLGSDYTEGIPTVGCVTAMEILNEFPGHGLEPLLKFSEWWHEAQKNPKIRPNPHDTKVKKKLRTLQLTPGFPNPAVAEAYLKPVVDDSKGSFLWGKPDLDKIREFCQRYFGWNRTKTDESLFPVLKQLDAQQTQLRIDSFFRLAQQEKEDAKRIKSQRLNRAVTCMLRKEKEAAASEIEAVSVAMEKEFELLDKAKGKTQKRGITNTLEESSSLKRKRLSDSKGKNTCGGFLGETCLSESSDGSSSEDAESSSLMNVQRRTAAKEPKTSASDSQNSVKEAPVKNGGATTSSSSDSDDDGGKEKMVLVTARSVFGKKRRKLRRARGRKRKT
ENDPOINT: IC50

Reference set (3 entries):
COMPOUND STRUCTURE STRING: CS(=O)(=O)c1cccc(Cn2cc(Cn3c(=O)c(O)c(C(=O)O)c4sccc43)cn2)c1
IC50: 2.25 to 10 µM
//
COMPOUND STRUCTURE STRING: O=C(O)c1c(O)c(=O)n(Cc2cccc(Cl)c2)c2ccsc12
IC50: 2.25 to 10 µM
//
COMPOUND STRUCTURE STRING: O=C(O)c1c(O)c(=O)n(Cc2nnc(-c3ccccc3)o2)c2ccsc12
IC50: 0.75 to 2.25 µM

Query: // map `CC(=O)Nc1cccc(Cn2c(=O)c(O)c(C(=O)O)c3sccc32)c1` to recorded IC50 (system: hXPG (Homo sapiens (Human), UniProt P28715))
Response: 2.25 to 10 µM

Query: Now consider `O=C(O)c1c(O)c(=O)n(Cc2ccccc2)c2ccsc12` and answer again.
Response: 2.25 to 10 µM

Query: Now consider `O=C(O)c1c(O)c(=O)n(Cc2cnn(Cc3cccc4nonc34)c2)c2ccsc12` and answer again.
Response: 2.25 to 10 µM

Query: Now consider `O=C(O)c1c(O)c(=O)n(Cc2cnn(Cc3ccccc3)c2)c2ccsc12` and answer again.
Response: 0.75 to 2.25 µM

Query: Now consider `CS(=O)(=O)Nc1ccc(Cn2c(=O)c(O)c(C(=O)O)c3sccc32)cc1` and answer again.
Response: 2.25 to 10 µM

Query: Now consider `O=C(O)c1c(O)c(=O)n(Cc2ccc(Br)cc2)c2ccsc12` and answer again.
Response: 2.25 to 10 µM

Query: Now consider `O=C(O)c1c(O)c(=O)n(Cc2cn(-c3ccc4c(c3)OCO4)nn2)c2ccsc12` and answer again.
Response: 0.25 to 0.75 µM

Query: Now consider `CC(=O)Nc1ccc(-n2cc(Cn3c(=O)c(O)c(C(=O)O)c4sccc43)cn2)cc1` and answer again.
Response: 0.25 to 0.75 µM

Query: Now consider `CC(=O)Nc1ccc(Cn2c(=O)c(O)c(C(=O)O)c3sccc32)cc1` and answer again.
Response: 2.25 to 10 µM

Query: Now consider `CS(=O)(=O)Nc1cccc(Cn2c(=O)c(O)c(C(=O)O)c3sccc32)c1` and answer again.
Response: 2.25 to 10 µM

These measurements were taken from patent US11584755B2.
